This collection of values is drawn from patent US6632794B1.

molecular target: IGFBP-3 (Homo sapiens); experiment: BIAcore competition assay, IGFBP-3 binding to immobilized IGF-I; settings: bp3-01-ox variants by BIAcore; wt = bp3-01-ox
Sequence (P17936 28-291): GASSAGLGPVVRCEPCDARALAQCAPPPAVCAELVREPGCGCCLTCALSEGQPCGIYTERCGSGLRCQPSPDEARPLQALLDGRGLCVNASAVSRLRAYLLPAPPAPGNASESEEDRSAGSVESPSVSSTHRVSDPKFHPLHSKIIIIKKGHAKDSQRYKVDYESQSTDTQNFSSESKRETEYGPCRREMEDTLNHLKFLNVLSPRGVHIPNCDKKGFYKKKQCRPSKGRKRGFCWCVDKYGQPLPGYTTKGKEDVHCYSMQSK
Positions of bridges follow the written chain, without caps; N, C: chain ends. Residues, ends and D or L forms follow the SMILES beside them.
MEASUREMENT KIND: IGF-I Inhibition IC50 (mut)/IC50 (wt)
Give the value as a plain number.

[Q] Name the recorded IGF-I Inhibition IC50 (mut)/IC50 (wt) of the item CC(C)C[C@@H]1NC(=O)[C@H](Cc2ccc(O)cc2)NC(=O)[C@H](Cc2c[nH]c3ccccc23)NC(=O)[C@H](CCC(=O)O)NC(=O)[C@H](C)NC(=O)[C@H](C(C)C)NC(=O)[C@@H]2CCCN2C(=O)[C@H](Cc2c[nH]c3ccccc23)NC(=O)[C@@H](NC(=O)[C@@H](NC(=O)[C@H](CCC(=O)O)NC(=O)[C@@H]2CCCN2C(=O)CN)[C@@H](C)O)CSSC[C@@H](C(=O)N[C@@H](CC(N)=O)C(=O)O)NC1=O [bp3-41] (H-GPETCWPVAEWYLCN-OH; disulfide 5-14; N-terminus and C-terminus assumed) in your answer.
[A] 2.0
